Parameter viability, T/C: see the listing below.
Tested on: 266295-075-R-J1-PDC spheroid viability
Test: Anticancer human tumor 266295-075-R-J1-PDC patient-derived head and neck squamous carcinoma cell line growth inhibition [POLQ]
Test conditions: second compound 0.0316 µM; first compound 10 µM; hits give low values; spheroids with HUVEC and MSC
Just the number please, in %, no unit attached.

As a guide, the following entries are already answered.
{"Compound": "COc1cc(C2c3cc4c(cc3C(OC3OC5COC(C)OC5C(O)C3O)C3COC(=O)C23)OCO4)cc(OC)c1O (stereo not given) + Nc1ccc(C#CCN(C(=O)Cc2ncc(C(F)(F)F)cc2C(F)(F)F)c2ccc(F)cc2)nn1", "U": "%", "viability, T/C": 82.8}
{"Compound": "CNCc1ccc(-c2[nH]c3cc(F)cc4c3c2CCNC4=O)cc1 + COC1C(OC(N)=O)C(O)C(Oc2ccc3c(O)c(NC(=O)c4ccc(O)c(CC=C(C)C)c4)c(=O)oc3c2C)OC1(C)C", "U": "%", "viability, T/C": 98.2}
{"Compound": "CCCS(=O)(=O)Nc1ccc(F)c(C(=O)c2c[nH]c3ncc(-c4ccc(Cl)cc4)cc23)c1F + COC1C(OC(N)=O)C(O)C(Oc2ccc3c(O)c(NC(=O)c4ccc(O)c(CC=C(C)C)c4)c(=O)oc3c2C)OC1(C)C", "U": "%", "viability, T/C": 172}
{"Compound": "CCc1cc2c(N3CCc4c(cc(Cn5ccnc5)cc4-c4cn(C)nc4C(F)(F)F)C3=O)cc(C)nc2c(OC)n1 + COC1C(OC(N)=O)C(O)C(Oc2ccc3c(O)c(NC(=O)c4ccc(O)c(CC=C(C)C)c4)c(=O)oc3c2C)OC1(C)C", "U": "%", "viability, T/C": 148}

API: the following record is the query input.
Exercise: What viability, T/C value was documented for this compound, COc1cccc2c1C(=O)c1c(O)c3c(c(O)c1C2=O)CC(O)(C(=O)CO)CC3OC1CC(N)C(O)C(C)O1 (stereo not given) + COC1C(OC(N)=O)C(O)C(Oc2ccc3c(O)c(NC(=O)c4ccc(O)c(CC=C(C)C)c4)c(=O)oc3c2C)OC1(C)C ?
Key: 2.47

====

Tested on: 266295-075-R-J1-PDC spheroid viability
Test: Anticancer human tumor 266295-075-R-J1-PDC cell line growth inhibition [POLQ];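 further: spheroids exposed to compounds for seven days before readout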
Test conditions: second compound 1 µM; first compound 0.316 µM; hits give low values; spheroids with HUVEC and MSC
Readings of viability, T/C for the listed molecules

Exercise: // returns reported viability, T/C for input CCc1cc2c(N3CCc4c(cc(Cn5ccnc5)cc4-c4cn(C)nc4C(F)(F)F)C3=O)cc(C)nc2c(OC)n1 + Nc1ccc(C#CCN(C(=O)Cc2ncc(C(F)(F)F)cc2C(F)(F)F)c2ccc(F)cc2)nn1
Key: 96.7%

Exercise: May I ask what viability, T/C has been recorded for Nc1ccn(C2OC(CO)C(O)C2(F)F)c(=O)n1 (stereo not drawn) + COC1C(OC(N)=O)C(O)C(Oc2ccc3c(O)c(NC(=O)c4ccc(O)c(CC=C(C)C)c4)c(=O)oc3c2C)OC1(C)C ?
Key: 87%

Exercise: I'd like to know its viability, T/C. The molecule in question is CC1COCCN1c1cc(C2(S(C)(=N)=O)CC2)nc(-c2ccnc3[nH]ccc23)n1 (stereo not drawn) + Cc1cccc(N(C)C(=O)C2C(O)CCN2c2nc(C)cc(C(F)(F)F)c2C#N)c1
Key: 96.8%

Source of measurements: PubChem BioAssay AID1963853
